Target: Tyrosine-protein kinase Fgr (Homo sapiens, UniProt P09769)
Sequence (P09769 whole entry): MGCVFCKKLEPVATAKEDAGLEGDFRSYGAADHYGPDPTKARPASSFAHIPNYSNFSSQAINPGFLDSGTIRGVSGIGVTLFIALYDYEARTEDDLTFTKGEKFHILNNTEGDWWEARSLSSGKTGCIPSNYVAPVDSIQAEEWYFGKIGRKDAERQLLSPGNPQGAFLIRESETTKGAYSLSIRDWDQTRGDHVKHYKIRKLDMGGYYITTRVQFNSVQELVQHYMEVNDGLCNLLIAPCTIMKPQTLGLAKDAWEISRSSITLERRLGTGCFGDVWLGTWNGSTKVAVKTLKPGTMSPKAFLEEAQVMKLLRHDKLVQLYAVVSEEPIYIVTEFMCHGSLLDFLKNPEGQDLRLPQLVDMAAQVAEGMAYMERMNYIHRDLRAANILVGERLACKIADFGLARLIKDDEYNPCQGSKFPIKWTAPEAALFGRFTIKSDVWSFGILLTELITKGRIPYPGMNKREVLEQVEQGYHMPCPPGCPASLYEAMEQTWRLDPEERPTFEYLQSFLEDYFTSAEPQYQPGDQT
Assay: Inhibition of recombinant full length human C-terminal His-tagged FGR expressed in baculovirus expression system using tyrosine-2 peptide as substrate incubated for 60 mins in presence of ATP by Z'-LYTE assay
QUANTITY: IC50 (µM)
Write the number in µM without appending the unit.

For the compound C[C@@H]1C[C@H]1C(=O)N1CCN(c2cnc(C#N)c(-c3cnn(C)c3)n2)C[C@H]1C , give its reported IC50. 25.4

---

Assay: Intrinsic clearance in rat hepatocytes
Type: ADME, cell-based, Hepatocyte
Settings: read-out: CLH
QUANTITY: CLint scaled (mL/min/kg)
Expressed in mL/min/kg, but write only the number.

Return CLint scaled (reported value) for this molecule: N#Cc1cnc(-c2cccnc2)nc1N1C[C@@H]2C[C@H]1CN2c1cccc(F)c1 234

---

Molecular target: Tyrosine-protein kinase ABL1 (Homo sapiens, UniProt P00519, E255K)
Experiment: Inhibition of recombinant full length human His-tagged ABL1 E255K mutant cytoplasmic domain expressed in baculovirus expression system using tyrosine-2 peptide as substrate incubated for 60 mins in presence of ATP by Z'-LYTE assay
QUANTITY: IC50

For the compound C[C@@H]1C[C@H]1C(=O)N1CCN(c2cnc(C#N)c(-c3cnn(C)c3)n2)C[C@H]1C , give its measured IC50 value. > 100 µM

---

Molecular target: Interleukin-1 receptor-associated kinase 4 (Homo sapiens, UniProt Q9NWZ3)
Sequence (Q9NWZ3 whole entry): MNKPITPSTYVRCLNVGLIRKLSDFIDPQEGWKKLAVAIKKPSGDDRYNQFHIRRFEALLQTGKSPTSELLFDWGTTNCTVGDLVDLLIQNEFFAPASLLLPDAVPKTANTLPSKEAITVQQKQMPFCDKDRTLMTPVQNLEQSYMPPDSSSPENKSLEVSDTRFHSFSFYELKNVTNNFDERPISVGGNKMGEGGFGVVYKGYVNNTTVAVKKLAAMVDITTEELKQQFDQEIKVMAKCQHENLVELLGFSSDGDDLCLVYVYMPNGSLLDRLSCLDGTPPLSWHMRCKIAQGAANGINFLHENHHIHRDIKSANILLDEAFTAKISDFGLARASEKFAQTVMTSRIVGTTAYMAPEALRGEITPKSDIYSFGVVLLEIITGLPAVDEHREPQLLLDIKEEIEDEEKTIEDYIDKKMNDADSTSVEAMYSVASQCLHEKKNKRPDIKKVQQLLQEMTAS
Experiment: Inhibition of recombinant full length human His-tagged IRAK4 expressed in baculovirus expression system using serine/threonine-7 peptide as substrate incubated for 60 mins in presence of ATP by Z'-LYTE assay
pIC50: −log10 of the molar value.
QUANTITY: pIC50

Please supply the value of reported pIC50 for the item C[C@@H]1C[C@H]1C(=O)N1CCN(c2cnc(C#N)c(-c3cnn(C)c3)n2)C[C@H]1C < 4.00

---

Target: Platelet-derived growth factor receptor alpha (Homo sapiens)
Sequence (P16234 whole entry, the tested form may be a part): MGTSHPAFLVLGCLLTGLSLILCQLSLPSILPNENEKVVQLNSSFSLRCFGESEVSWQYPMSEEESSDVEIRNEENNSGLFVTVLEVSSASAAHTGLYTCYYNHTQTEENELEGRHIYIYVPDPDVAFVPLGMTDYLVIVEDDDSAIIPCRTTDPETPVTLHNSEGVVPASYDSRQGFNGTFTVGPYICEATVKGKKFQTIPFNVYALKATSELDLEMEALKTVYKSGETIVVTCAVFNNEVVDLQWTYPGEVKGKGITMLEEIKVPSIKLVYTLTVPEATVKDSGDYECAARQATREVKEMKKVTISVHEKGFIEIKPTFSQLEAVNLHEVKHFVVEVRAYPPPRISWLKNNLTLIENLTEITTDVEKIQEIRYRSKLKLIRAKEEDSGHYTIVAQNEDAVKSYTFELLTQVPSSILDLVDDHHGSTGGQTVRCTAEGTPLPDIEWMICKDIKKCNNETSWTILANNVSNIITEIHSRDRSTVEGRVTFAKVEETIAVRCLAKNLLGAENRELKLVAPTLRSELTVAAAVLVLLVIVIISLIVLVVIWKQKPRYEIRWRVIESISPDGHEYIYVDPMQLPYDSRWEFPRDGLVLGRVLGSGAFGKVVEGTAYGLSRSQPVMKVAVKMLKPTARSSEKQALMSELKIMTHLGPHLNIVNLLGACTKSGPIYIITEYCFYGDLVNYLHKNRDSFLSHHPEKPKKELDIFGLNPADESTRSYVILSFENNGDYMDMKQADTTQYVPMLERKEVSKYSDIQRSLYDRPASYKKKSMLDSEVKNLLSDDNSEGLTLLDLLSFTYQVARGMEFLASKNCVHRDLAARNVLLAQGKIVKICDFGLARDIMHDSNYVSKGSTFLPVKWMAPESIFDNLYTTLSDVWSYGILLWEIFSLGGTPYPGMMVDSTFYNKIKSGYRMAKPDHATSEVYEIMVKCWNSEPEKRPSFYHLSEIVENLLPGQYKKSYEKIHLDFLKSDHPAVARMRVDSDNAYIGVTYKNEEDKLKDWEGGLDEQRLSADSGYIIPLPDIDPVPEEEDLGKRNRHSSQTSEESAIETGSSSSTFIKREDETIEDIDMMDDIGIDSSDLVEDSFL
Assay: Inhibition of recombinant human GST-tagged PDGFRalpha cytoplasmic domain (550 to 1089 residues) expressed in baculovirus expression system using tyrosine-4 peptide as substrate incubated for 60 mins in presence of ATP by Z'-LYTE assay
QUANTITY: IC50

Provide IC50 value for the following molecule: C[C@@H]1C[C@H]1C(=O)N1CCN(c2cnc(C#N)c(-c3cnn(C)c3)n2)C[C@H]1C > 100 µM

---

Biological target: RAC-beta serine/threonine-protein kinase (Homo sapiens, UniProt P31751)
Assay: Inhibition of recombinant full length human His-tagged AKT2 expressed in baculovirus expression system using Ser/Thr-06 peptide as substrate incubated for 60 mins in presence of ATP by Z'-LYTE assay
pIC50: −log10 of the molar value.
QUANTITY: pIC50

Give measured pIC50 for C[C@@H]1C[C@H]1C(=O)N1CCN(c2cnc(C#N)c(-c3cnn(C)c3)n2)C[C@H]1C (RAC-beta serine/threonine-protein kinase (Homo sapiens, UniProt P31751)). < 4.00

---

Molecular target: Ribosomal protein S6 kinase alpha-5 (Homo sapiens)
Assay: Inhibition of recombinant full length human GST-tagged RPS6KA5 expressed in baculovirus expression system using ser/Thr01 peptide as substrate incubated for 60 mins in presence of ATP by Z'-LYTE assay
QUANTITY: IC50

Give recorded IC50. C[C@@H]1C[C@H]1C(=O)N1CCN(c2cnc(C#N)c(-c3cnn(C)c3)n2)C[C@H]1C > 100 µM

---

Target: Tyrosine-protein kinase ABL1 (Homo sapiens)
Experiment: Inhibition of recombinant full length human His-tagged ABL1 cytoplasmic domain expressed in baculovirus expression system using tyrosine-2 peptide as substrate incubated for 60 mins in presence of ATP by Z'-LYTE assay
pIC50: −log10 of the molar value.
QUANTITY: pIC50

Report measured pIC50 on Tyrosine-protein kinase ABL1 (Homo sapiens); entry: C[C@@H]1C[C@H]1C(=O)N1CCN(c2cnc(C#N)c(-c3cnn(C)c3)n2)C[C@H]1C < 4.00

---

Assay: Volume of drug distribution in rat at 0.5 mg/kg, iv or 1 mg/kg, po
Format: ADME, organism-based
Details: in vivo
QUANTITY: Vd (L/kg)
Could you give me the number in L/kg? Just the number is fine.

Consider the compound C[C@@H]1C[C@H]1C(=O)N1CCN(c2cnc(C#N)c(-c3cnn(C)c3)n2)C[C@H]1C . State its measured Vd. 1.1

---

Biological target: Serine/threonine-protein kinase PAK 5 (Homo sapiens, UniProt Q9P286)
Test: Inhibition of recombinant human His-tagged PAK7 catalytic domain (425 to 719 residues) expressed in baculovirus expression system using serine/threonine-20 peptide as substrate incubated for 60 mins in presence of ATP by Z'-LYTE assay
QUANTITY: IC50

Write down the reported IC50 (system: Serine/threonine-protein kinase PAK 5 (Homo sapiens, UniProt Q9P286)) of C[C@@H]1C[C@H]1C(=O)N1CCN(c2cnc(C#N)c(-c3cnn(C)c3)n2)C[C@H]1C > 100 µM

---

Biological target: MAP/microtubule affinity-regulating kinase 4 (Homo sapiens)
Sequence (Q96L34 whole entry): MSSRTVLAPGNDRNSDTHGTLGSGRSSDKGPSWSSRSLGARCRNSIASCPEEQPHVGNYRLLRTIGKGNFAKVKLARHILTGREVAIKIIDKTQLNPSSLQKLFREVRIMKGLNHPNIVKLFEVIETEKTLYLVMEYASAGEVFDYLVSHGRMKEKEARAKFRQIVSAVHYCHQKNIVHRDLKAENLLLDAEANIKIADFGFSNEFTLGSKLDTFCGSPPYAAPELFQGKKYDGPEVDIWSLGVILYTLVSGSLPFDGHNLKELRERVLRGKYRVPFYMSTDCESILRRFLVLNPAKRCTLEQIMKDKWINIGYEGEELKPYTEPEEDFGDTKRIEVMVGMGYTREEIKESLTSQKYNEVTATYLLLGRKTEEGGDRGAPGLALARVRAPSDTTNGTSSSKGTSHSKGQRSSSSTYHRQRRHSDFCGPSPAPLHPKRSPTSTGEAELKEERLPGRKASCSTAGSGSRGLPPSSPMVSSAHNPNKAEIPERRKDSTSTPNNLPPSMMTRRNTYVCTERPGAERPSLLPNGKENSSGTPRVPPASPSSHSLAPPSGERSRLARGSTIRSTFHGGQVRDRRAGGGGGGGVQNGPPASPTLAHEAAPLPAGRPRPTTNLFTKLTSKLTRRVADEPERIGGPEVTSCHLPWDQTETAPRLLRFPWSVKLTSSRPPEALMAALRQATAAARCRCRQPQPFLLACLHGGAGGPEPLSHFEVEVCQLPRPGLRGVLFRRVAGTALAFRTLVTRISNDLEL
Assay: Inhibition of recombinant full length human GST-tagged MARK4 expressed in baculovirus expression system using serine/threonine-25 peptide as substrate incubated for 60 mins in presence of ATP by Z'-LYTE assay
QUANTITY: IC50

Give IC50 for C[C@@H]1C[C@H]1C(=O)N1CCN(c2cnc(C#N)c(-c3cnn(C)c3)n2)C[C@H]1C > 100 µM

---

Target: UniProt P07949
Test: Inhibition of recombinant human GST-tagged RET cytoplasmic domain expressed in baculovirus expression system using tyr02 peptide as substrate incubated for 60 mins in presence of ATP by Z'-LYTE assay
QUANTITY: IC50

Find the measured IC50 of C[C@@H]1C[C@H]1C(=O)N1CCN(c2cnc(C#N)c(-c3cnn(C)c3)n2)C[C@H]1C with UniProt P07949 as test system. > 100 µM

---

Biological target: Tyrosine-protein kinase ZAP-70 (Homo sapiens, UniProt P43403)
Sequence (P43403 whole entry): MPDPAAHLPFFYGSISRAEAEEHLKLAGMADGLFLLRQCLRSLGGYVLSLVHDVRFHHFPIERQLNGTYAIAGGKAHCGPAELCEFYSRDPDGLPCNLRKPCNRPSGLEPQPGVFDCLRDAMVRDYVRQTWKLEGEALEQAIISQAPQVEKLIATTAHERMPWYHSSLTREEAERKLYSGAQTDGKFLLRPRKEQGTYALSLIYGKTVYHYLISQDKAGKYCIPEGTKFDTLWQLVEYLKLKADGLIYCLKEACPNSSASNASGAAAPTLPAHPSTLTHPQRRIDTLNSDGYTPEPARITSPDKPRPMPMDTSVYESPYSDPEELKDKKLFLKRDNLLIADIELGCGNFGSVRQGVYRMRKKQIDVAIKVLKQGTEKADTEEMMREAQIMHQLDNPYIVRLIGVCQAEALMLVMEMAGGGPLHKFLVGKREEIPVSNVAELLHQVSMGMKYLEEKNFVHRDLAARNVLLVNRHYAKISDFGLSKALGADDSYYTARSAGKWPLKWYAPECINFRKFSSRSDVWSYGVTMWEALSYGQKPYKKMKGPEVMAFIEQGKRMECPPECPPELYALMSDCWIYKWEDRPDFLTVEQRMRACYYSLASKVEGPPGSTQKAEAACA
Test: Inhibition of recombinant full length human His-tagged ZAP70 cytoplasmic domain expressed in baculovirus expression system using fluorophore-labeled tyrosine-07 peptide as substrate incubated for 60 mins in presence of ATP by Z'-LYTE assay
QUANTITY: IC50

Supply reported IC50 belonging to this molecule: C[C@@H]1C[C@H]1C(=O)N1CCN(c2cnc(C#N)c(-c3cnn(C)c3)n2)C[C@H]1C > 100 µM

---

Molecular target: PI3-kinase p110-delta/p85-alpha (Homo sapiens, UniProt O00329)
Sequence (P27986 whole entry): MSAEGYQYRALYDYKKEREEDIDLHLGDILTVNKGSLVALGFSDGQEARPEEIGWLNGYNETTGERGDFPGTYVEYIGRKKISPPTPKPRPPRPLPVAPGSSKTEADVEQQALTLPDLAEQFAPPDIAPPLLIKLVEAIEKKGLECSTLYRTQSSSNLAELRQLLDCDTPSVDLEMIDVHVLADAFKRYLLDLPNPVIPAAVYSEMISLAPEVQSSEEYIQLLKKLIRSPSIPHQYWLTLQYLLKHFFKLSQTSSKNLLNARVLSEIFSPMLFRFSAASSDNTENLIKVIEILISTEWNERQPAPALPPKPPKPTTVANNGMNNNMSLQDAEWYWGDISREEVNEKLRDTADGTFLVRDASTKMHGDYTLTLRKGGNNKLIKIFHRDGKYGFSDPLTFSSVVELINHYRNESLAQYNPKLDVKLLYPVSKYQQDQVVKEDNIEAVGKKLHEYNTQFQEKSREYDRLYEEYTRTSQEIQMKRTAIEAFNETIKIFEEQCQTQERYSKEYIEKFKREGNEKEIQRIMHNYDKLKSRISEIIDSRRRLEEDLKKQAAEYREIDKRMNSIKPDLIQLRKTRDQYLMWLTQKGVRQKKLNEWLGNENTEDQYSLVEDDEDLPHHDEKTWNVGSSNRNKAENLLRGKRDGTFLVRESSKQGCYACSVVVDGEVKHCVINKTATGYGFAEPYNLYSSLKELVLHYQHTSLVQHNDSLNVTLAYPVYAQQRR
Sequence (O00329 whole entry): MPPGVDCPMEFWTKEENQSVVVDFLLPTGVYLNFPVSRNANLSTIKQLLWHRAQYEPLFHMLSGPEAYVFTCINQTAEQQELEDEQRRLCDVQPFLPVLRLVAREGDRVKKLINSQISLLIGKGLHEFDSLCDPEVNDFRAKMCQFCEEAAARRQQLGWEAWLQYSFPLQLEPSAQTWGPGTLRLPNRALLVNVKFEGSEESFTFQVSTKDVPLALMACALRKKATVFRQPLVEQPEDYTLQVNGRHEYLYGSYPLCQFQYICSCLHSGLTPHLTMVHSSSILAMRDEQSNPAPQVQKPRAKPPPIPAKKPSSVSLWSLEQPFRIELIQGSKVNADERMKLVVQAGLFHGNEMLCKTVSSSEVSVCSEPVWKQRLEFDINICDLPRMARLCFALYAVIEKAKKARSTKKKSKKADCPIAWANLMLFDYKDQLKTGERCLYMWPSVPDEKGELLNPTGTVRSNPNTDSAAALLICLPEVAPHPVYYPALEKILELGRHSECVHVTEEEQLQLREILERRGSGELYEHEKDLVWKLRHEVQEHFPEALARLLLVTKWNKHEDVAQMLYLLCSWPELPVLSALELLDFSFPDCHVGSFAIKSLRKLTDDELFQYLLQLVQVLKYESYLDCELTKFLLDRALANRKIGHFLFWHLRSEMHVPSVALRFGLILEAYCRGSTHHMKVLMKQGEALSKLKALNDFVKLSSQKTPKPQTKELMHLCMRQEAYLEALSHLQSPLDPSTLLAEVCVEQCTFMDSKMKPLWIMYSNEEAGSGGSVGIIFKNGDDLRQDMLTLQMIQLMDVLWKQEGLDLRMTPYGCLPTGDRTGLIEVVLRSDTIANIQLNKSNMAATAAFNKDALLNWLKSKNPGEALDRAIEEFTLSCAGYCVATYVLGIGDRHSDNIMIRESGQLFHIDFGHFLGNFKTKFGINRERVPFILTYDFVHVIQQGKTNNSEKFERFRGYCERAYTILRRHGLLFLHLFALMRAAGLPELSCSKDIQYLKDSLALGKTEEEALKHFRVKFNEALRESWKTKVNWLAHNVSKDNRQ
Experiment: Inhibition of recombinant human full-length N-terminal GST-tagged p110delta/untagged full-length p85alpha expressed in baculovirus infected Sf21 cells using PIP2 as substrate preincubated for 15 mins followed by substrate addition and measured after 1 hr by HTRF assay
The compounds listed here are annotated with their IC50.
Report the value in nM with no unit label.

Please review the following examples before continuing.
N#Cc1cnc(N2Cc3cn[nH]c3C2)nc1N1C[C@@H]2C[C@H]1CN2c1cccc(F)c1 ... 86
CCNC(=O)N1C[C@@H]2C[C@H]1CN2c1nc(-c2cnn(C)c2)ncc1C#N ... 2190
Cn1cc(-c2ncc(C#N)c(N3C[C@@H]4C[C@H]3CN4S(=O)(=O)C3CC3)n2)cn1 ... 1190

Consider the compound C[C@@H]1CN(c2nc(-c3cnn(C)c3)ncc2C#N)CCN1C(=O)C1CCC1 and give its recorded IC50. 374

Recall and state the measured IC50 for Cn1cc(-c2ncc(C#N)c(N3CCN(c4cccc(F)c4)CC3)n2)cn1 . 1600

Answer with the recorded IC50 of C[C@@H]1C[C@H]1C(=O)N1CCN(c2cnc(C#N)c(-c3cnn(C)c3)n2)C[C@H]1C only. 9

Report IC50 for N#Cc1cnc(-c2ccnc3[nH]ccc23)nc1N1C[C@@H]2C[C@H]1CN2c1cccc(F)c1 56

Please report the measured IC50 for CC1CC1C(=O)N1CCN(c2nc(-c3cnn(C)c3)ncc2C#N)C[C@H]1C (mixture of isomers) 79
